Test Name: collision cross section (TWIMS, N2) of ion [M+Na]+; higher = larger gas-phase ion cross section
Condition: ionization: ESI positive; LC: HILIC, pH 3.0 ammonium formate
For each entry below, report its collision cross section value.
Could you kindly put the unit after your number?

**Q:** Provide collision cross section value for the following compound: Nc1nc2c(ncn2[C@@H]2O[C@@H]3COP(=O)(O)O[C@H]3[C@H]2O)c(=O)[nH]1 [cGMP]
**A:** 178.55 Å²

**Q:** Provide collision cross section value for the following compound: OC[C@H]1O[C@H](O[C@H]2[C@H](O)[C@H](O)[C@@H](O)O[C@@H]2CO)[C@H](O)[C@@H](O)[C@@H]1O [D-maltose]
**A:** 175.45 Å²

**Q:** Provide collision cross section value for the following compound: Nc1ccccc1C(=O)C[C@H](N)C(=O)O [L-kynurenine]
**A:** 149.75 Å²

**Q:** Provide collision cross section value for the following compound: CC(C)(CO)[C@@H](O)C(=O)NCCC(=O)O [Pantothenic acid]
**A:** 150.01 Å²

**Q:** Provide collision cross section value for the following compound: Nc1nc(=O)c2nc(CNc3ccc(C(=O)N[C@@H](CCC(=O)O)C(=O)O)cc3)cnc2[nH]1 [Folic acid]
**A:** 201.44 Å²

**Q:** Provide collision cross section value for the following compound: O=C(O)[C@@H]1CCCN1 [L-proline]
**A:** 130.65 Å²

**Q:** Provide collision cross section value for the following compound: O[C@H]1[C@H](O)[C@H](O)OC[C@H]1O [D-arabinose]
**A:** 131.78 Å²

**Q:** Provide collision cross section value for the following compound: OC[C@H]1OC(O)[C@H](O)[C@@H]1O (stereo partly drawn) [D-ribose]
**A:** 131.78 Å²

**Q:** Provide collision cross section value for the following compound: OC1OC[C@@H](O)[C@H](O)[C@H]1O (stereo partly drawn) [D-xylose]
**A:** 131.78 Å²

**Q:** Provide collision cross section value for the following compound: OC[C@H]1O[C@@H](n2cnc3c(O)ncnc32)[C@H](O)[C@@H]1O [Inosine]
**A:** 166.42 Å²

* * *

Test Name: collision cross section (TWIMS, N2) of ion [M+H]+; higher = larger gas-phase ion cross section
Condition: ionization: ESI positive; LC: HILIC, pH 3.0 ammonium formate
Attribute Measured: collision cross section (Å²)
Report only the number, with the unit Å² understood.

**Q:** Provide collision cross section value for the following compound: N[C@@H](Cc1c[nH]c2ccccc12)C(=O)O
**A:** 147.76

**Q:** Provide collision cross section value for the following compound: O=C(O)[C@@H]1CCCN1
**A:** 123.7

**Q:** Provide collision cross section value for the following compound: O=c1cc[nH]c(=O)[nH]1
**A:** 120.27

**Q:** Provide collision cross section value for the following compound: CC(C)(CO)[C@@H](O)C(=O)NCCC(=O)O
**A:** 145.63

**Q:** Provide collision cross section value for the following compound: O=C1CC[C@@H](C(=O)O)N1
**A:** 126.02

**Q:** Provide collision cross section value for the following compound: Nc1ccccc1C(=O)O
**A:** 124.05

**Q:** Provide collision cross section value for the following compound: Nc1nc(=O)c2[nH]cnc2[nH]1
**A:** 128.49

**Q:** Provide collision cross section value for the following compound: OC[C@H]1O[C@@H](n2cnc3c(O)ncnc32)[C@H](O)[C@@H]1O
**A:** 155.86

**Q:** Provide collision cross section value for the following compound: CC(C)[C@H](N)C(=O)O
**A:** 123.49

**Q:** Provide collision cross section value for the following compound: Cc1c[nH]c(=O)[nH]c1=O
**A:** 120.81

**Q:** Provide collision cross section value for the following compound: Nc1ncnc2nc[nH]c12
**A:** 125.13

**Q:** Provide collision cross section value for the following compound: Cc1cccc(O)c1
**A:** 126.19

* * *

For each entry below, report its retention time on BEH HILIC column value.
Test Name: retention time on BEH HILIC column (20 min gradient, 0.4 mL/min); higher = later elution
Condition: ionization: ESI negative; LC: HILIC, pH 9.0 ammonium acetate
Report only the number, with the unit min understood.

**Q:** Provide retention time on BEH HILIC column value for the following compound: OC[C@@H](O)C(O)[C@H](O)CO
**A:** 3.16

**Q:** Provide retention time on BEH HILIC column value for the following compound: C[C@H](O)C(=O)O
**A:** 2.86

**Q:** Provide retention time on BEH HILIC column value for the following compound: CSCC[C@H](N)C(=O)O
**A:** 6.8

**Q:** Provide retention time on BEH HILIC column value for the following compound: OC[C@@H](O)[C@H](O)[C@@H](O)CO
**A:** 3.16

**Q:** Provide retention time on BEH HILIC column value for the following compound: Cc1ncc(C[n+]2csc(CCO)c2C)c(N)n1
**A:** 8.94

**Q:** Provide retention time on BEH HILIC column value for the following compound: Nc1c(O)cccc1C(=O)O [3-hydroxyanthranilic acid]
**A:** 1.12

**Q:** Provide retention time on BEH HILIC column value for the following compound: CC[C@H](C)[C@H](N)C(=O)O
**A:** 6.68

**Q:** Provide retention time on BEH HILIC column value for the following compound: N[C@@H](Cc1cnc[nH]1)C(=O)O
**A:** 12.7

**Q:** Provide retention time on BEH HILIC column value for the following compound: CCCCCCC(=O)O
**A:** 0.9

**Q:** Provide retention time on BEH HILIC column value for the following compound: O=C(O)c1ccc(C(=O)O)o1
**A:** 7.28

**Q:** Provide retention time on BEH HILIC column value for the following compound: N=C(N)NCCC[C@H](N)C(=O)O
**A:** 11.1

**Q:** Provide retention time on BEH HILIC column value for the following compound: NCCC(=O)N[C@@H](Cc1cnc[nH]1)C(=O)O
**A:** 11.7

**Q:** Provide retention time on BEH HILIC column value for the following compound: N[C@@H](Cc1ccccc1)C(=O)O
**A:** 6.02

**Q:** Provide retention time on BEH HILIC column value for the following compound: Nc1ncnc2c1ncn2[C@@H]1O[C@H](CO)[C@@H](O)[C@H]1O
**A:** 2.36

**Q:** Provide retention time on BEH HILIC column value for the following compound: O=C(O)c1cccnc1
**A:** 2.74

**Q:** Provide retention time on BEH HILIC column value for the following compound: COc1cc([C@H](O)C(=O)O)ccc1O
**A:** 4.41

**Q:** Provide retention time on BEH HILIC column value for the following compound: O=C(O)CCCC[C@@H]1SC[C@@H]2NC(=O)N[C@@H]21
**A:** 1.78

**Q:** Provide retention time on BEH HILIC column value for the following compound: O[C@H]1[C@H](O)[C@@H](O)[C@H](O)[C@@H](O)[C@H]1O
**A:** 5.92

**Q:** Provide retention time on BEH HILIC column value for the following compound: O=C(O)c1cc(O)ccc1O
**A:** 1.41

**Q:** Provide retention time on BEH HILIC column value for the following compound: C/C(=C\C(=O)O)CC(=O)O
**A:** 1.75

**Q:** Provide retention time on BEH HILIC column value for the following compound: C[C@@H](O)[C@H](N)C(=O)O
**A:** 7.5

**Q:** Provide retention time on BEH HILIC column value for the following compound: CCCCCCCC/C=C\CCCCCCCC(=O)O
**A:** 0.75

**Q:** Provide retention time on BEH HILIC column value for the following compound: Cc1c(C)c2c(c(C)c1O)CC[C@@](C)(CCC[C@H](C)CCC[C@H](C)CCCC(C)C)O2
**A:** 0.73

**Q:** Provide retention time on BEH HILIC column value for the following compound: O=C(O)CCCC(=O)C(=O)O
**A:** 5.03

**Q:** Provide retention time on BEH HILIC column value for the following compound: CC(C)C(=O)O
**A:** 3.29

**Q:** Provide retention time on BEH HILIC column value for the following compound: O=P(O)(O)OC[C@H]1O[C@](O)(COP(=O)(O)O)[C@@H](O)[C@@H]1O [Fructose 1,6-bisphosphate]
**A:** 12.9

**Q:** Provide retention time on BEH HILIC column value for the following compound: CC(=O)Oc1ccc(O)cc1 [4-hydroxyphenyl acetate]
**A:** 0.67

**Q:** Provide retention time on BEH HILIC column value for the following compound: CC(C)CC(=O)C(=O)O
**A:** 1.93

**Q:** Provide retention time on BEH HILIC column value for the following compound: N=C(NCCC[C@H](N)C(=O)O)N[C@@H](CC(=O)O)C(=O)O
**A:** 12.7

**Q:** Provide retention time on BEH HILIC column value for the following compound: CCCCCC(=O)O
**A:** 0.9

**Q:** Provide retention time on BEH HILIC column value for the following compound: CC(C)C[C@H](N)C(=O)O
**A:** 6.46

**Q:** Provide retention time on BEH HILIC column value for the following compound: Cc1c[nH]c(=O)[nH]c1=O
**A:** 1.03

**Q:** Provide retention time on BEH HILIC column value for the following compound: N[C@@H]1[C@@H](O)[C@H](O)[C@@H](COP(=O)(O)O)O[C@@H]1O [Glucosamine 6-phosphate]
**A:** 12.3

**Q:** Provide retention time on BEH HILIC column value for the following compound: Nc1ccccc1C(=O)O
**A:** 0.97

**Q:** Provide retention time on BEH HILIC column value for the following compound: OC[C@H]1O[C@@H](O[C@H]2[C@H](O)[C@@H](O)[C@@H](O)O[C@@H]2CO)[C@H](O)[C@@H](O)[C@H]1O
**A:** 7.33

**Q:** Provide retention time on BEH HILIC column value for the following compound: C[C@@H](CC(=O)O)C(=O)O
**A:** 1.28

**Q:** Provide retention time on BEH HILIC column value for the following compound: CC[C@H](N)C(=O)O
**A:** 7.05

**Q:** Provide retention time on BEH HILIC column value for the following compound: CCOC(=O)CC(C)C(=O)OCC (configuration not stated) [Diethyl methylsuccinate]
**A:** 0.95

**Q:** Provide retention time on BEH HILIC column value for the following compound: OC[C@@H](O)[C@@H](O)[C@H](O)[C@H](O)CO
**A:** 4.75

**Q:** Provide retention time on BEH HILIC column value for the following compound: N[C@@H](CSSC[C@H](N)C(=O)O)C(=O)O
**A:** 12

**Q:** Provide retention time on BEH HILIC column value for the following compound: Nc1ncnc2c1ncn2[C@@H]1O[C@H](COP(=O)(O)O)[C@@H](O)[C@H]1O
**A:** 12

**Q:** Provide retention time on BEH HILIC column value for the following compound: CC[C@H](C)C(=O)C(=O)O
**A:** 1.93
